Reported ED50 values for the following compounds.
Test system: Mus musculus
Assay: Muscle relaxation activity using the rotarod performance test in mice by oral administration.
Assay type: functional

compound | ED50
CC(=O)NCC(=O)Nc1ccc(Cl)cc1C(=O)c1ccccc1 | > 100 mg/kg
CCN(CC)CC(=O)NCC(=O)N(C)c1ccc(Cl)cc1C(=O)c1ccccc1Cl | 34 mg/kg
CCCCCCC(=O)NCC(=O)N(C)c1ccc(Cl)cc1C(=O)c1ccccc1Cl | 70 mg/kg
CN(C(=O)CNC(=O)CN)c1ccc(Cl)cc1C(=O)c1ccccc1Cl [LORZAFONE ANHYDROUS] | 27.7 mg/kg
O=C1CN=C(c2ccccc2)c2cc([N+](=O)[O-])ccc2N1 [NITRAZEPAM] | 4.25 mg/kg
CN(C(=O)CNC(=O)Cc1ccccc1)c1ccc(Cl)cc1C(=O)c1ccccc1Cl | > 100 mg/kg
CC(=O)NCC(=O)N(C)c1ccc(Cl)cc1C(=O)c1ccccc1Cl | 58 mg/kg
CN(C(=O)CNC(=O)CN1CCCCC1)c1ccc(Cl)cc1C(=O)c1ccccc1Cl | > 100 mg/kg
CN(C(=O)CNC(=O)c1ccccc1)c1ccc(Cl)cc1C(=O)c1ccccc1 | > 100 mg/kg
NCC(=O)NCC(=O)Nc1ccc([N+](=O)[O-])cc1C(=O)c1ccccc1Cl | 63.9 mg/kg

---

Tested on: Mus musculus
Experiment: Muscle relaxation activity using the rotarod performance test in mice by oral administration.
Format: functional
Reported ED50 values for the following compounds.

compound | assayed target | ED50
CN(C(=O)CNC(=O)CN1CCOCC1)c1ccc(Cl)cc1C(=O)c1ccccc1Cl | Mus musculus | > 100 mg/kg
CC(=O)NCC(=O)Nc1ccc(Cl)cc1C(=O)c1ccccc1Cl | Mus musculus | > 100 mg/kg
CN(C(=O)CNC(=O)c1ccccc1)c1ccc(Cl)cc1C(=O)c1ccccc1Cl | Mus musculus | > 100 mg/kg
NC(C(=O)NCC(=O)Nc1ccc(Cl)cc1C(=O)c1ccccc1)c1ccccc1 (centres undefined) | Mus musculus | > 100 mg/kg
CCCCCC(=O)NCC(=O)N(C)c1ccc(Cl)cc1C(=O)c1ccccc1Cl | Mus musculus | 90 mg/kg
CC(C)C(=O)NCC(=O)N(C)c1ccc(Cl)cc1C(=O)c1ccccc1Cl | Mus musculus | > 100 mg/kg
CCCCC(=O)NCC(=O)N(C)c1ccc(Cl)cc1C(=O)c1ccccc1Cl | Mus musculus | 90 mg/kg
CC(NC(=O)CN)C(=O)N(C)c1ccc(Cl)cc1C(=O)c1ccccc1Cl (centres undefined) | Mus musculus | 8.5 mg/kg
CN(C(=O)CNC(=O)CN1CCC(O)(c2ccc(Cl)cc2)CC1)c1ccc(Cl)cc1C(=O)c1ccccc1Cl | Mus musculus | > 100 mg/kg
CCCCCCCCCCCCCCCC(=O)NCC(=O)N(C)c1ccc(Cl)cc1C(=O)c1ccccc1Cl | Mus musculus | > 100 mg/kg
CC(C)NCC(=O)NCC(=O)N(C)c1ccc(Cl)cc1C(=O)c1ccccc1Cl | Mus musculus | 13 mg/kg
CN1CCN(CC(=O)NCC(=O)N(C)c2ccc(Cl)cc2C(=O)c2ccccc2Cl)CC1 | Mus musculus | > 100 mg/kg
CN(C)CC(=O)NCC(=O)N(C)c1ccc(Cl)cc1C(=O)c1ccccc1Cl | Mus musculus | 26 mg/kg
CN(C(=O)CNC(=O)CN1CCN(c2ccccc2)CC1)c1ccc(Cl)cc1C(=O)c1ccccc1Cl | Mus musculus | > 100 mg/kg

Value source: ChEMBL document CHEMBL1121711
